Assay: gradient 5% acetonitrile 3 min, to 50% in 2 min, to 85% in 15 min, held 3 min, 100 µL/min
Settings: column: Zorbax Extend-C18 2.1 x 50 mm; eluents: water / acetonitrile, 0.1% formic acid
Value Type: RP-LC retention time (s)

• CC(Cc1ccco1)NC(=O)CCCn1c(=O)c2cccn2c2ccc(Br)cc21 (stereo not drawn) = 924
• CN(C)CCNCc1ccc(-c2cc(Cl)ccc2Cl)o1 = 578
• Cc1ccc(-c2nnc(SCC(=O)N3CCC(C)CC3)o2)cc1 = 986
• CCN(CC)CCCNC(=O)C1CCCN(C(=O)c2nnc(C(=O)Nc3ccc(F)cc3)s2)C1 (stereo not drawn) = 652
• Cc1ccc2c(C(=O)N3CCN(CC(C)C)CC3)cc(NC(=O)C3CCC3)cc2n1 = 562
• CC(C)CN1C(=O)c2cccn2CC1C(=O)N1CCCC1 (stereo not drawn) = 674
• CC1CCCN(C(=O)C2CC(=O)N(c3ccccc3)C2)C1 (stereo not drawn) = 786
• COc1ccc(C(C)NC(=O)C2CCN(c3cncnc3N3CCCCC3)CC2)cc1 (stereo not drawn) = 685
• CCn1cnnc1C1CCCCN1S(=O)(=O)c1ccccc1F (stereo not drawn) = 706
• O=C(CSc1nnc2c3sc(N4CCCC4)nc3ncn12)NC1CCCCC1 = 767
• Cc1ccc2nc(Nc3ncc4c(n3)CC(C)CC4=O)nc(C)c2c1 (stereo not drawn) = 651
• O=C(Cn1nc2c3cc(-c4ccc(F)cc4)nn3ccn2c1=O)Nc1ccccc1Br = 945
• CCOc1ccc(N(C)S(=O)(=O)c2ccsc2C(=O)NC(C)CCc2ccccc2)cc1 (stereo not drawn) = 1260
• Cc1ccc(-c2n[nH]c3c2CN(C(=O)c2cnn4cccnc24)CC3)cc1 = 648
• Cc1ccc(-c2nc(N)n(C(=O)C(C)(C)C)n2)cc1 = 1080
• Cc1ccc(C(=O)N2CCCC2COc2ccc(C(=O)NC(C)C)cc2)cc1F (stereo not drawn) = 889
• COC(=O)c1cc(C)nc2c1c(=O)n(Cc1nc(-c3ccc(OC)c(OC)c3)oc1C)c(=O)n2C = 964
• CN(CCNC(=O)C1CCCN(c2cnc3nccnc3c2)C1)C1CCCCC1 (stereo not drawn) = 577
• CC(C)c1noc(COC2CCN(C(=O)NCc3ccco3)CC2)n1 = 739
• O=c1c(NCCCc2ccccc2)nc2ccncc2n1Cc1ccccc1 = 778
• COc1ccc(OC)c(NC(=O)c2noc3c2CCCC3)c1 = 1160
• CCOC(=O)C1=C(CN2CCc3ccccc3C2)NC(=O)NC1c1cccc(OC)c1OC (stereo not drawn) = 660
• CC1CCc2c(sc(NC(=O)Cc3ccc(Cl)s3)c2C(N)=O)C1 (stereo not drawn) = 1000
• COc1ccccc1-c1nnc(-c2ccc(Cl)c(S(=O)(=O)N3CCCC3)c2)o1 = 992
• Cc1nnc(C2CC3(CCN(Cc4ccccc4)CC3)CN2CCc2ccccc2)o1 (stereo not drawn) = 638
• CC(=O)c1ccc(NC(=O)c2cnn3c4c(cnc23)CCCCCC4)cc1 = 1060
• O=C(NCc1ccccc1)N1CCN(Cc2nc3cc(-c4ccccc4)ccc3o2)CC1 = 825
• O=c1ccc(-c2ccccc2)nn1CCc1nc(-c2ccc(Br)cc2)no1 = 1060

* * *

Below, each of the compounds is paired with its reported RP-LC retention time value.
Assay: gradient 5% acetonitrile 3 min, to 50% in 2 min, to 85% in 15 min, held 3 min, 100 µL/min
Conditions: column: Zorbax Extend-C18 2.1 x 50 mm; eluents: water / acetonitrile, 0.1% formic acid
Value Type: RP-LC retention time

* N#Cc1ccc(C(=O)NC2CC(=O)N(Cc3ccccc3)C2)cc1 (centres undefined) | 768 s
* Cc1ccc(-c2noc(CN3C(=O)COc4ccc(Cl)cc43)n2)cc1 | 1150 s
* NC(=O)c1c(NC(=O)C2CCCN(C(=O)c3ccc4c(c3)OCCO4)C2)sc2c1CCCC2 (centres undefined) | 839 s
* COCCNc1c(-c2cccc(C)c2)nc2sc(C(=O)NC3CC3)c(C)n12 | 602 s
* CCC(=O)N1CCc2c(sc3ncnc(NCCc4ccccc4)c23)C1 | 834 s
* CCc1nc(-c2cccc(-c3noc(CNS(=O)(=O)c4ccc(F)cc4)n3)c2)cs1 | 1060 s
* Cc1ccc(NC(=O)CN2CCc3[nH]c4c(C)c(C)ccc4c(=O)c3C2)cc1 | 626 s
* Cc1cc(S(=O)(=O)N2CCC(n3c(-c4ccoc4)nc4cccnc43)C2)ccc1F (centres undefined) | 827 s
* Nc1nc(F)nc2c1ncn2[C@@H]1O[C@H](CO)[C@@H](O)[C@@H]1O | 573 s
* Cc1cc(=O)c(OCc2ccccc2F)cn1CC(=O)NCc1ccco1 | 593 s
* O=C(Cn1nc(Cc2cccnc2)c2ccccc2c1=O)NCCC1=CCCCC1 | 663 s
* O=C(Nc1ccc(Cl)cc1)N1CCC(n2c(C(F)(F)F)nc3cccnc32)CC1 | 942 s
* Nc1ccc(SCc2nc3cccc4c3n2CCC4)cc1 | 662 s
* CCOC(=O)c1cc(S(=O)(=O)N2CCCC2C(=O)Nc2nc3ccc(OC)cc3s2)cn1C (centres undefined) | 947 s

* * *

Assay: gradient 5% acetonitrile 3 min, to 50% in 2 min, to 85% in 15 min, held 3 min, 100 µL/min
Conditions: column: Zorbax Extend-C18 2.1 x 50 mm; eluents: water / acetonitrile, 0.1% formic acid
Value Type: RP-LC retention time (s)

- Cc1cc(F)ccc1NC(=O)CCc1c(C)nn(-c2cc(N(C)C)ncn2)c1C: 778
- CC(C)(C)c1ccc(-c2nc(-c3ccc(S(=O)(=O)N4CCOCC4)cc3)no2)cc1: 1400
- CN1C(=O)c2cc(C(=O)NCCN3CCCCCC3)nn2CC1(C)C(=O)NCc1ccccc1 (centres undefined): 608
- CN(C)C(CNC(=O)Nc1ccccc1C(F)(F)F)c1ccco1 (centres undefined): 566
- CC1Oc2ccccc2N(CC(=O)N2CCCN(c3cc(=O)n(C(C)C)c(=O)n3C(C)C)CC2)C1=O (centres undefined): 845
- COc1ccc(OCc2nc(Cc3nc(-c4cccc(C)c4)oc3C)no2)cc1: 1160
- Cc1ccc(-c2csc3c(=O)n(Cc4ccccn4)cnc23)cc1: 889
- O=C(Cc1nnc(-c2ccncc2)o1)NCc1ccc(C(F)(F)F)cc1: 718
- Cn1c(=O)c2cc(C(=O)Nc3ccc(Cl)cc3)cnc2n(-c2ccccc2)c1=O: 962
- Cc1ccccc1-c1nc2ccccc2n1CC(N)=O: 616
- COc1ccc(NS(=O)(=O)c2cc(-c3[nH]ncc3C(=O)N(C)C)oc2C)cc1F: 672
- CCc1cccc(C)c1Nc1c(-c2ccc(OC)cc2)nc2cnccn12: 873
- COc1ccc(Cl)cc1NC(=O)c1sc(-c2cn(C)c3ncccc23)nc1C: 1220
- O=C(c1cccs1)N1CCC(c2nncn2-c2ccccc2)CC1: 626

* * *

Assay: gradient 5% acetonitrile 3 min, to 50% in 2 min, to 85% in 15 min, held 3 min, 100 µL/min
Settings: column: Zorbax Extend-C18 2.1 x 50 mm; eluents: water / acetonitrile, 0.1% formic acid
Response field class: enum, chosen by comparing RP-LC retention time against bucket A (below 800 s), bucket B (800 s to below 1000 s), bucket C (1000 s or more)

• CSc1cccc(N2C(=O)C3N=NN(Cc4nc(-c5ccc(Cl)cc5)no4)C3C2=O)c1 (configuration not stated) = bucket C
• CS(=O)(=O)N1CC(F)(F)C[C@H]1c1nc(-c2ccccc2)no1 = bucket B
• CC(C)C(=O)Nc1cc2c(cc1S(=O)(=O)c1ccccc1)n(C)c(=O)n2C = bucket A
• C#Cc1cccc(NC(=O)c2ccc(Cl)cc2Cl)c1 = bucket C
• CCCNC(=O)CN1CCN(c2cc(C(=O)O)c3cc(NC(=O)C(C)C)ccc3n2)CC1 = bucket A
• Cc1ccc2c(c1)N(Cc1nc(-c3ccc(OC(F)(F)F)cc3)no1)C(=O)CO2 = bucket C
• CCCC[C@@H](C)/C=C(C)/C=C(\C)C(=O)NC1=C[C@@](O)(/C=C/C=C/C=C/C(=O)NC2=C(O)CCC2=O)[C@@H]2OC2C1=O (some centres not stated) = bucket C
• Cc1cccc(-n2cc(C(=O)OCc3ccncc3)c3ccccc3c2=O)c1 = bucket A
• Cc1ccc(C)c(N2CCN(c3ccnc(SCC(=O)Nc4cc(F)ccc4C)n3)CC2)c1 = bucket C
• O=C(c1nc(Nc2ccc(F)cc2)c2ccccc2n1)N1CCOCC1 = bucket A
• Cc1ccc(C2=NC3(CCN(C(=O)Cc4ccccc4C)CC3)ON2)cc1 = bucket B

* * *

Experiment: gradient 5% acetonitrile 3 min, to 50% in 2 min, to 85% in 15 min, held 3 min, 100 µL/min
Conditions: column: Zorbax Extend-C18 2.1 x 50 mm; eluents: water / acetonitrile, 0.1% formic acid
Below, each of the compounds is paired with its reported RP-LC retention time value.
Value Type: RP-LC retention time

* Cc1ccccc1CC(=O)Nc1ccc2c(c1)CCC(=O)N2CC(C)C | 910 s
* CNC(=O)C1CCN(C2=NS(=O)(=O)C(c3ccc(C(C)C)cc3)=C2C)CC1 | 777 s
* CSc1ncccc1C(=O)NCc1cc(-c2ccc3c(c2)OCCO3)on1 | 748 s
